- testedTarget: Solute carrier organic anion transporter family member 1A4 (Rattus norvegicus)
- Sequence (O35913 whole entry): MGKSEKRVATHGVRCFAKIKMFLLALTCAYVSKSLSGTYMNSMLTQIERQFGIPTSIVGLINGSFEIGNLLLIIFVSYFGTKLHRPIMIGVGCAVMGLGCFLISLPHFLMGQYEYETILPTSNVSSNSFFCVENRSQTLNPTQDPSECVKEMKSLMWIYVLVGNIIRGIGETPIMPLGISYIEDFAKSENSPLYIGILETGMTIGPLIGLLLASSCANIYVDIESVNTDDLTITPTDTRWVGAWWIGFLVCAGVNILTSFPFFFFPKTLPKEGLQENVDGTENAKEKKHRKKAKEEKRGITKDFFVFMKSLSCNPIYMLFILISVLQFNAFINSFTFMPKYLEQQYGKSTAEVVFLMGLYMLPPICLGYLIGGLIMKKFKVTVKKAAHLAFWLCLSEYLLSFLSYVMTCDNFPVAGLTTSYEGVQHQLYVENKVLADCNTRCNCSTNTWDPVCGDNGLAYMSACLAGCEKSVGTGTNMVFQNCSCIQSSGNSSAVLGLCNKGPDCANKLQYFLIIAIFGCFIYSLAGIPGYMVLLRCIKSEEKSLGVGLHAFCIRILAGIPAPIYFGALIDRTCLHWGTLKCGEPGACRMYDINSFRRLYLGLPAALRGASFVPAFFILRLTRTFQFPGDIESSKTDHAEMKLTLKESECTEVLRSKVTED
- assayMethodText: TP_TRANSPORTER: inhibition of Digoxin uptake in Xenopus laevis oocytes
- Assay type: functional, cell-based, Oocyte
observationType: pKi
For clarity, pKi is expressed as the negative log10 of concentration in mol/L.

What is its pKi for Solute carrier organic anion transporter family member 1A4 (Rattus norvegicus)? Entry: CC1=C(/C=C/C(C)=C/C=C/C(C)=C/c2cc(/C=C/C=C(C)/C=C/C3=C(C)CCCC3(C)C)cc[n+]2CCO)C(C)(C)CCC1
4.43
